# Test system: TO-N3 (biotin conjugate)
# ASSAY: pull-down binding Z-score (relative to library population); higher = stronger binding
# CONDITION_SET: RNA library: Library-2
Ranges used to classify pull-down binding Z-score: low end: < -0.2; middle: ≥ -0.2 and < 0.5; high end: ≥ 0.5

| SEQUENCE | ASSIGNED_LABEL |
| --- | --- |
| AAUGCAGUCUGCACCCUGCUGCAUU [hsa-mir-6504] | middle |
| AGGCUCUGGGUCCGGCUUACUCCCUAGCUUACUGUCCUCAGAACCC [hsa-mir-6071] | middle |
| AUGAGAAGUGCUCUGCCUAUACAGUUGAACUCGGUACAGAAGUAAAUGAGUUCGCCUGUGUUGUGGCAGAUGCUGUCAU [SHAPE_invitro_SARS-CoV-2_Motif_53] | middle |
| CUUUUUGCCACCUGAGCACAGUCAGCAGUCAGCAUAAAA [hsa-mir-4275] | high end |
| AGUCAUAACAAGAGAAGUGGGUUUUGUCGUGCCUGGUUUGCCUGGCACGAUAUUACGCACAACUAAUGGUGACU [DMSMaPseq_invitro_SARS-CoV-2_Motif_162] | low end |

Lookup: # classify by pull-down binding Z-score band: CACUGAUUCAGUAAAAUACUCAGUG [hsa-mir-891a]
Found: low end

Lookup: # classify by pull-down binding Z-score band: UCGUCAGUGUUUGA [hsa-mir-8073]
Found: low end

Lookup: # classify by pull-down binding Z-score band: UUUGUUGAAAGAAUAAAUAAACCAACAAG [hsa-mir-1264]
Found: low end

Lookup: # classify by pull-down binding Z-score band: GACAUUGCCAGAGGAUGGGCAGCAGAC [hsa-mir-6855]
Found: high end

Lookup: # classify by pull-down binding Z-score band: UUACUGCAGGGAUCUUAGCAGUAC [hsa-mir-583]
Found: middle

Lookup: # classify by pull-down binding Z-score band: AUUUCCCAAAGUUGGGAAAA [hsa-mir-320b-2]
Found: low end

Lookup: # classify by pull-down binding Z-score band: GGUUUAUACCUUCCCAGGUAACAAACC
Found: low end

Lookup: # classify by pull-down binding Z-score band: CGUGCUCAGCUUGGCACCCAAGUUCUGC [hsa-mir-7704]
Found: middle

Lookup: # classify by pull-down binding Z-score band: UGGUGGGGGCCGGGGCAGGCCCAGCGAAA [hsa-mir-648]
Found: high end

Lookup: # classify by pull-down binding Z-score band: GAGGUGGGAAGGCUGCCCCAAAUGGCCUCUAACAUCCCUUCCAGUCUCCUCCUC [hsa-mir-6127]
Found: middle

Lookup: # classify by pull-down binding Z-score band: GAGUACCUUCCAACACGAGCUCUC [hsa-mir-3664]
Found: middle

Lookup: # classify by pull-down binding Z-score band: AUGUUCGCUUCAUUCAUCAUGAAUAA [hsa-mir-655]
Found: middle

Lookup: # classify by pull-down binding Z-score band: GCUGAAACACAGUUGGUUUGUGUACACUGGC [hsa-mir-24-2]
Found: middle

Lookup: # classify by pull-down binding Z-score band: CUGGGAAGAGACCAUGAACAGGUUAGUCCAG [hsa-mir-4327]
Found: high end

Lookup: # classify by pull-down binding Z-score band: UGGCCUGGCAGUGCGUCGGAAGAACAGGGCGGGUGGGGCC [hsa-mir-4792]
Found: high end

Numbers sourced from the supplement of paper PMC11865577.
